target: human ether-à-go-go-related gene (hERG) potassium channel (human); assay: primary screen, population patch clamp on CHO cells stably expressing hERG; higher = less effect of the substance
The whole screen tested about 310,000 compounds, of which about 14,000 (4.5%) showed an effect of 50% or more. Effects have a minus sign here. The entries come from a sample that favours strong results as a whole.
Please use label 1 whenever hERG current change (%, negative = inhibition) at 10uM is not below -40%, and label 0 whenever it is.

compound: COc1ccccc1N1CCN(C(=O)c2cc(=O)c3cc(C)ccc3o2)CC1
experimental system: human ether-à-go-go-related gene (hERG) potassium channel (human)
class: label 0
//
compound: CCOC(=O)C1=C(C)NC(=S)NC1c1ccc(-c2cccc(Cl)c2C)o1 (stereo not drawn)
experimental system: human ether-à-go-go-related gene (hERG) potassium channel (human)
class: label 1
//
compound: COc1ccccc1N1CCN(C(=O)c2cc(=O)c3ccc(C)cc3o2)CC1
experimental system: human ether-à-go-go-related gene (hERG) potassium channel (human)
class: label 1
//
compound: Cc1ccc2nc(-c3ccccc3O)c(Nc3ccc4c(c3)OCCO4)n2c1
experimental system: human ether-à-go-go-related gene (hERG) potassium channel (human)
class: label 1
//
compound: CC(=O)NCCC(=O)N1CCCC(C(=O)c2ccc3c4c(cccc24)CC3)C1 (stereo not drawn)
experimental system: human ether-à-go-go-related gene (hERG) potassium channel (human)
class: label 1
//
compound: COc1ccccc1N1CCN(C(=O)c2cc(=O)c3cc(C)cc(C)c3o2)CC1
experimental system: human ether-à-go-go-related gene (hERG) potassium channel (human)
class: label 1
//
compound: COc1cccc(-c2nc3n(n2)C(c2cccs2)C(C(=O)Nc2cccnc2)=C(C)N3)c1 (stereo not drawn)
experimental system: human ether-à-go-go-related gene (hERG) potassium channel (human)
class: label 0
//
compound: CCc1ccc2oc(C(=O)N3CCN(c4ccccc4OC)CC3)cc(=O)c2c1
experimental system: human ether-à-go-go-related gene (hERG) potassium channel (human)
class: label 0
//
compound: CCc1ccc2oc(C(=O)N3CCN(c4ccc(OC)cc4)CC3)cc(=O)c2c1
experimental system: human ether-à-go-go-related gene (hERG) potassium channel (human)
class: label 1

----------
Entries annotated with measured hERG current change (%, negative = inhibition) at 10uM
biological target: human ether-à-go-go-related gene (hERG) potassium channel (human, UniProt Q12809); assay: primary screen, population patch clamp on CHO cells stably expressing hERG; higher = less effect of the substance;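 further: peak tail current of the secondary pulse compared with the same well before compound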
Sequence (Q12809 whole entry, looked up): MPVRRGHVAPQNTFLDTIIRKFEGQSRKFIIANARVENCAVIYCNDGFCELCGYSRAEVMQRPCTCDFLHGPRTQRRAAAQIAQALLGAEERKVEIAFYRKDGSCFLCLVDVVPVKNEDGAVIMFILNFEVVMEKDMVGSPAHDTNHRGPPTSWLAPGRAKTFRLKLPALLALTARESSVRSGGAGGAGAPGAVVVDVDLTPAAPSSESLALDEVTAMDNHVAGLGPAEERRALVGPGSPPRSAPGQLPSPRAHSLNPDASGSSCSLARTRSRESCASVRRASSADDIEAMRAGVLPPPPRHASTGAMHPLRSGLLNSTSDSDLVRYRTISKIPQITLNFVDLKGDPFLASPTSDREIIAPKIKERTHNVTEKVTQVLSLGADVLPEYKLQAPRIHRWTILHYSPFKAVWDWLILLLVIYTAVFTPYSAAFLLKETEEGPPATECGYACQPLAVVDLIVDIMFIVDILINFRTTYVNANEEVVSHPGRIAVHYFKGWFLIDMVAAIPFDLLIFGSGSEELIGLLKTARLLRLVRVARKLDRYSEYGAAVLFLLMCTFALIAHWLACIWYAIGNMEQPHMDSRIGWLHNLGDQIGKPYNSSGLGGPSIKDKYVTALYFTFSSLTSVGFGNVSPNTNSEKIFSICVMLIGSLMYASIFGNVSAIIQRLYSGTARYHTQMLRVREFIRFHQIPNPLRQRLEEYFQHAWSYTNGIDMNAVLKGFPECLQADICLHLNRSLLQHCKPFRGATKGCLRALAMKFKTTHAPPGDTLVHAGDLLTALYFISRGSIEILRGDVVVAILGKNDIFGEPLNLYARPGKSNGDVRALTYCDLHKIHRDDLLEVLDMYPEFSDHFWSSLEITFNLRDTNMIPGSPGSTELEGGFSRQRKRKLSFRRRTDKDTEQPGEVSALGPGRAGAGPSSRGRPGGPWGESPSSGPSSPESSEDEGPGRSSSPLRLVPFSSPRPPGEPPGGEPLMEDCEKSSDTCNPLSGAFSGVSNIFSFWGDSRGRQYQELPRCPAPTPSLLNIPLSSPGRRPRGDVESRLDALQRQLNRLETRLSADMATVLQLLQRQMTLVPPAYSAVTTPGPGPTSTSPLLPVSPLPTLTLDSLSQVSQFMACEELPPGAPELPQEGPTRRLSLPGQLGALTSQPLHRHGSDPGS
Screen size: about 310,000 compounds; about 14,000 (4.5%) showed an effect of 50% or more. Effects have a minus sign here. Shown is part of a subset that was picked to be rich in strong results.
measurement label: hERG current change (%, negative = inhibition) at 10uM

smi: O=C(OCc1c(F)cccc1Cl)c1cc([N+](=O)[O-])ccc1N1CCOCC1
measured: 3.43%

smi: CCCc1nc(SCc2cccnc2)c2c(=O)n(C)c(=O)n(C)c2n1
measured: -57.3%

smi: O=[N+]([O-])c1ccc(N2CCN(S(=O)(=O)c3ccccc3[N+](=O)[O-])CC2)cc1NCc1cccnc1
measured: -8.91%

smi: CCc1cccc(NC(=O)COC(=O)c2cc([N+](=O)[O-])ccc2N2CCOCC2)c1
measured: -7.99%

smi: O=C(OCc1ccccc1F)c1cc([N+](=O)[O-])ccc1N1CCOCC1
measured: -47.9%

smi: COc1ccc(NC(=O)CSc2ncn[nH]2)c([N+](=O)[O-])c1
measured: -4.71%

smi: CC(C)Cc1nc(SCc2cccnc2)c2c(=O)n(C)c(=O)n(C)c2n1
measured: -8.32%

smi: O=C(COc1ccc(Cl)cc1)Nc1cccc(S(=O)(=O)NC2=NCCCCC2)c1
measured: -42.1%

smi: Cn1c(=O)c2c(SCc3cccnc3)nc(CC(C)(C)C)nc2n(C)c1=O
measured: -59.6%

----------
Entries annotated with measured hERG current change (%, negative = inhibition) at 10uM
target: human ether-à-go-go-related gene (hERG) potassium channel (human); assay: primary screen, population patch clamp on CHO cells stably expressing hERG; higher = less effect of the substance;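 further: peak tail current of the secondary pulse compared with the same well before compound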
The campaign covered roughly 310,000 compounds. About 14,000 (4.5%) showed an effect of 50% or more. The effect is printed as a negative number. The sample holds strong results, similar compounds and a random draw of the others, so the mix is not that of the screen.
measurement label: hERG current change (%, negative = inhibition) at 10uM (%)

compound: CCOC(=O)c1c(CN2CCOCC2)n(C)c2cc(Br)c(O)c(CN(C)C)c12
measured: -27.4
//
compound: CCOC(=O)c1c(CSc2ccc(C)cc2)n(C)c2cc(Br)c(O)c(CN(C)C)c12.Cl.O
measured: -54.9
//
compound: COc1ccc(CCNCC(O)COc2cccc(Br)c2)cc1OC (stereo not drawn)
measured: -67.3
//
compound: COc1ccc(CCNCC(O)COc2ccc(OC)cc2C(C)(C)C)cc1 (stereo not drawn)
measured: -38.8
//
compound: COc1ccc(CCNC(=O)CCCOc2ccc(Cl)cc2)cc1OC
measured: -15.3
//
compound: Cc1ccc(N2C(=O)CC(Sc3nc(-c4ccccc4)c4cc(Cl)ccc4n3)C2=O)c(C)c1 (stereo not drawn)
measured: 3.36
//
compound: CCOC(=O)c1c(CN(C)C)n(C)c2ccc(OC(C)=O)cc12.Cl
measured: -41.3
//
compound: COc1ccc(CCNCC(O)COc2cccc(C(C)=O)c2)cc1OC.O=C(O)C(=O)O (stereo not drawn)
measured: -0.028
//
compound: CCOC(=O)c1c(CS(=O)(=O)c2ccccc2)n(C)c2cc(Br)c(O)c(CN(C)C)c12
measured: -50.4

----------
molecular target: human ether-à-go-go-related gene (hERG) potassium channel (human); assay: primary screen, population patch clamp on CHO cells stably expressing hERG; higher = less effect of the substance;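 further: peak tail current of the secondary pulse compared with the same well before compound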
The whole screen tested about 310,000 compounds, of which about 14,000 (4.5%) showed an effect of 50% or more. Effects have a minus sign here. The full list was thinned out, with strong results kept by preference.
Entries annotated with measured hERG current change (%, negative = inhibition) at 10uM
measurement label: hERG current change (%, negative = inhibition) at 10uM (%)

compound: COc1ccc(N(CC(=O)NCc2cccnc2)S(=O)(=O)c2ccc(C)c([N+](=O)[O-])c2)cc1
unit: %
measured: -36.6
--
compound: CC(C)(C)Nc1nc(-c2ccccn2)nc2ccccc12
unit: %
measured: -69.8
--
compound: CN(c1ccc(OCC(=O)OCC(=O)Nc2c(F)c(F)c(F)c(F)c2F)cc1)S(=O)(=O)c1ccc(F)cc1
unit: %
measured: 8.61
--
compound: CCC(C)Nc1nc(-c2ccccn2)nc2ccccc12 (stereo not drawn)
unit: %
measured: -50.2
--
compound: COc1ccc(N(CC(=O)Nc2ccc(C(N)=O)cc2)S(=O)(=O)c2ccc(C)c([N+](=O)[O-])c2)cc1
unit: %
measured: 24
--
compound: Cc1ccccc1S(=O)(=O)Cc1ccc(C(=O)NC2CCCCCC2)o1
unit: %
measured: -31.9
--
compound: c1ccc(CCNc2nc(-c3ccccn3)nc3ccccc23)cc1
unit: %
measured: -78.6
--
compound: O=c1cc(-c2ccc(O)cc2)oc2ccccc12
unit: %
measured: 16.1
--
compound: CN(c1ccc(OCC(=O)OCC(=O)Nc2ccccc2)cc1)S(=O)(=O)c1ccc(F)cc1
unit: %
measured: -11.9

----------
molecular target: human ether-à-go-go-related gene (hERG) potassium channel (human, UniProt Q12809); assay: primary screen, population patch clamp on CHO cells stably expressing hERG; higher = less effect of the substance;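 further: peak tail current of the secondary pulse compared with the same well before compound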
The whole screen tested about 310,000 compounds, of which about 14,000 (4.5%) showed an effect of 50% or more. Effects have a minus sign here. The sample holds strong results, similar compounds and a random draw of the others, so the mix is not that of the screen.
measurement label: hERG current change (%, negative = inhibition) at 10uM (%)

compound: CCc1nnc(NC(=O)CCN2C(=O)CCC2=O)s1
measured: -8.3

compound: O=C(COC(=O)c1c(F)cccc1Cl)NC(=O)Nc1ccc2c(c1)OCCO2
measured: 12.4

compound: O=C(Nc1cc([N+](=O)[O-])ccc1N1CCCC1)c1cccs1
measured: -65.4

compound: Cc1nc2ncnn2c(N2CCCC(C(=O)Nc3ccccc3Br)C2)c1C (stereo not shown)
measured: -60.2

compound: O=C(Nc1cc([N+](=O)[O-])ccc1N1CCCC1)c1ccccc1
measured: -33.3

compound: CCCCn1c(C)csc1=Nc1cccnc1
measured: -2.02

compound: CCCCn1c(N)c(N(CCOC)C(=O)c2cc(S(=O)(=O)N3CCOCC3)ccc2F)c(=O)[nH]c1=O
measured: 16.1

compound: O=C(Nc1ccc2c(c1)CCC2)C1CCCN(c2ncccn2)C1 (stereo not shown)
measured: -2.53

compound: Cc1cc(N2CCCC(C(=O)Nc3ccc4c(c3)CCC4)C2)n2ncnc2n1 (stereo not shown)
measured: -57.2

compound: CN1CCN(c2ccc([N+](=O)[O-])cc2NC(=O)c2cccs2)CC1
measured: -55.2

compound: Cc1cc(N2CCCC(C(=O)Nc3cccc4ccccc34)C2)n2ncnc2n1 (stereo not shown)
measured: -61.9

compound: O=C(O)c1ccc(NS(=O)(=O)c2cc(C(=O)O)ccc2Br)cc1
measured: 17

compound: Cc1csc(=Nc2cccnc2)n1Cc1ccco1
measured: -0.17

compound: Cc1ccc(-c2csc(=Nc3cccnc3)n2CCCn2ccnc2)cc1C
measured: -70.2

compound: Cc1ccc([N+](=O)[O-])cc1NC(=O)c1cccs1
measured: 18.4

compound: COc1ccccc1NC(=O)C1CCCN(c2cc(C)nc3ncnn23)C1 (stereo not shown)
measured: -20.8

compound: COCCCn1c(C)csc1=Nc1cccnc1
measured: 4.68

compound: Cc1cc(CC(C)C)n(-c2nc3ccccc3c(=O)n2OCc2ccccc2)n1
measured: -7.08

compound: COCCn1c(-c2ccco2)csc1=Nc1cccnc1.Cl
measured: -3.9

compound: CCN(CC)C(=O)C1CCCN(c2ccccc2[N+](=O)[O-])C1 (stereo not shown)
measured: -1.67

compound: Cc1ccc2nc(C)c(CN3CCN(c4ccc([N+](=O)[O-])cc4Cl)CC3)n2c1
measured: -69.3

compound: COC(=O)c1ccc(N2CCN(C)CC2)c(NC(=O)c2cccs2)c1
measured: -8.75

compound: CN(C)c1ccc(P(=O)(Nc2ccc([N+](=O)[O-])cc2)N2CCOCC2)c(NC(=O)c2cccs2)c1 (stereo not shown)
measured: 16.9

compound: O=[N+]([O-])c1ccc(N2CCNCC2)c(Cl)c1
measured: -6.48

compound: Cc1cc(C)nc(N2CCC(C(=O)Nc3ccc4c(c3)CCC4)CC2)n1
measured: 17.3

compound: COc1ccc(-n2nc(C(=O)NCC(=O)NC(C)C)c3ccccc3c2=O)c(OC)c1
measured: 11.3

compound: Cc1ccc(N2CC(C(=O)NCCc3ccc(S(N)(=O)=O)cc3)CC2=O)cc1 (stereo not shown)
measured: 22.5

compound: COc1ccccc1NC(=O)C1CCCN(c2nc(C)cc(C)n2)C1 (stereo not shown)
measured: -10

compound: O=C(N/N=C\c1cc([N+](=O)[O-])ccc1N1CCCC1)c1ccccn1
measured: -3.3

compound: COc1ccc(NC(=O)C2CCCN(c3cc(C)nc4ncnn34)C2)cc1 (stereo not shown)
measured: -12.5

compound: Cc1nc2ncnn2c(N2CCCC(C(=O)Nc3ccc4c(c3)CCC4)C2)c1C (stereo not shown)
measured: -53

compound: Cc1nn(C)cc1C1C(C#N)=C(N)N(c2ccc(F)c([N+](=O)[O-])c2)C2=C1C(=O)CCC2 (stereo not shown)
measured: 11

compound: Cc1cc(N2CCCC(C(=O)Nc3cccc(Cl)c3)C2)n2ncnc2n1 (stereo not shown)
measured: -38

compound: CNC(=O)c1c(NC(=O)c2ccc(N3C(=O)CCC3=O)cc2)sc2c1CCCC2
measured: -13.3

compound: Clc1ccc(-c2csc(=Nc3cccnc3)n2CCCn2ccnc2)cc1Cl
measured: -67.3

compound: CN1CCN(c2ccc([N+](=O)[O-])cc2/C=N/NC(=O)c2cccc([N+](=O)[O-])c2)CC1
measured: -54

compound: COc1ccc(N2CCN(c3ccc([N+](=O)[O-])cc3Cl)CC2)cc1
measured: -12.1

compound: CN1CCN(c2ccc([N+](=O)[O-])cc2Cl)CC1
measured: -52.2

compound: CCc1c(C)nc2ncnn2c1N1CCCC(C(=O)NCc2cccs2)C1 (stereo not shown)
measured: -19.1

compound: Cc1cccc(-n2ncc3c2CCCC3NC(=O)C2CCOCC2)c1C (stereo not shown)
measured: 6.59
